# reported Growth Rate; entries follow
tested on: U2OS; assay: Incucyte cell viability with U2OS; type: toxicity, cell-based; settings: human, 18 h, 10 µM, compound concentration 10 uM, replicate number 1, timepoint 18 hours; further: filed as whole numbers so only -1 and 0 and 1 occur
// return just the number, without any unit appended

Inquiry: Reported Growth Rate for Cc1cn(-c2cc(NC(=O)c3ccc(C)c(Nc4nccc(-c5cccnc5)n4)c3)cc(C(F)(F)F)c2)cn1 [NILOTINIB] : what is it?
Reply text: 0

Inquiry: Reported Growth Rate for CO[C@@H](C)c1c(Nc2ccc([C@@H](N(C)C(=O)C3CCS(=O)(=O)CC3)C(F)(F)F)cc2)cnc2cc(Cl)nn12 [NVS-MALT1-C] : what is it?
Reply text: 0

Inquiry: Reported Growth Rate for Cc1nnc2c3ccccc3c(N[C@@H](C)[C@H](c3ccccc3)N(C)C)nn12 : what is it?
Reply text: 1

Inquiry: Reported Growth Rate for CN([C@@H](Cc1ccc(OS(=O)(=O)c2cccc3cnccc23)cc1)C(=O)N1CCN(c2ccccc2)CC1)S(=O)(=O)c1cccc2cnccc12 : what is it?
Reply text: 1

Inquiry: Reported Growth Rate for Cc1ccc(-c2cnc([C@@]3(O)CC[C@H](C(=O)O)C(C)(C)C3)s2)cc1Nc1cccc(C(F)(F)F)n1 [MRL-SYKi-NC] : what is it?
Reply text: 0

Inquiry: Reported Growth Rate for COc1cccc2cc(-c3nc([C@H]4CC[C@H](C(=O)O)CC4)n4ncnc(N)c34)[nH]c12 [OSI-027] : what is it?
Reply text: 0

Inquiry: Reported Growth Rate for Cn1nc(C(F)(F)F)cc1-c1cnc(N2CCc3cc(S(=O)(=O)Nc4c(F)cc(Cl)cc4F)cc(N4CCCC4=O)c32)nc1 [TP-020] : what is it?
Reply text: 1

Inquiry: Reported Growth Rate for Cc1c(NC(=O)c2cc(C(N)=O)nc3cc(F)ccc23)c(C(F)(F)F)nn1Cc1ccc(C(C)(C)C)cc1 [BAY-588] : what is it?
Reply text: 0

Inquiry: Reported Growth Rate for CCN1CCN(c2ccc(Nc3cc(N(C)C(=O)Nc4c(Cl)c(OC)cc(OC)c4Cl)ncn3)cc2)CC1 [INFIGRATINIB] : what is it?
Reply text: 0

Inquiry: Reported Growth Rate for CCOc1cc2ncc(C#N)c(Nc3ccc(OCc4ccccn4)c(Cl)c3)c2cc1NC(=O)/C=C/CN(C)C [NERATINIB] : what is it?
Reply text: 0

Inquiry: Reported Growth Rate for Cc1cc([C@@H](C)Nc2cccc(-c3cc(C)c(C(=O)N[C@@H](C)C(=O)O)c(C)c3)c2)ccc1Cl : what is it?
Reply text: 0

Inquiry: Reported Growth Rate for Cc1cnc(Nc2ccc(F)cc2Cl)nc1-c1c[nH]c(C(=O)N[C@H](CO)c2cccc(Cl)c2)c1 : what is it?
Reply text: 0

Inquiry: Reported Growth Rate for CCCc1c(OCCCOc2ccc(OCC(=O)O)cc2)ccc(C(C)=O)c1O : what is it?
Reply text: 1

Inquiry: Reported Growth Rate for CCN(CC)S(=O)(=O)Nc1cccc(-c2ccc3c(NC(=O)C4CC4)n[nH]c3c2)c1 : what is it?
Reply text: 0

Inquiry: Reported Growth Rate for COc1cc(OC)cc(-c2noc(N3CCN(C)C4(CCN(c5ccnc(C)c5)CC4)C3)n2)c1 : what is it?
Reply text: 0

Inquiry: Reported Growth Rate for CCCS(=O)(=O)Nc1ccc(F)c(C(=O)c2c[nH]c3ncc(Cl)cc23)c1F [PLX-4720] : what is it?
Reply text: 0
